Molecular target: recombinant purified human IL-12 p70 (human) (UniProt P29459)
Sequence (chain, as listed by the source, form in doubt, chain 1 of 2): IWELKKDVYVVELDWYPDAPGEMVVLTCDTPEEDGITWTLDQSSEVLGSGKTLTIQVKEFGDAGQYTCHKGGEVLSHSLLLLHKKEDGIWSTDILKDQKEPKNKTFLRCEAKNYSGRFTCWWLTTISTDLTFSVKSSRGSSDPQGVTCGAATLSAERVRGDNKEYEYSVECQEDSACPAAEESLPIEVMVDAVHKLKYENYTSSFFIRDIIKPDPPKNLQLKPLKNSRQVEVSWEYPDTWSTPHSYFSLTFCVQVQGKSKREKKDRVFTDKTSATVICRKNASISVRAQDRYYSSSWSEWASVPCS
Sequence (P29459 23-219, form in doubt, chain 2 of 2): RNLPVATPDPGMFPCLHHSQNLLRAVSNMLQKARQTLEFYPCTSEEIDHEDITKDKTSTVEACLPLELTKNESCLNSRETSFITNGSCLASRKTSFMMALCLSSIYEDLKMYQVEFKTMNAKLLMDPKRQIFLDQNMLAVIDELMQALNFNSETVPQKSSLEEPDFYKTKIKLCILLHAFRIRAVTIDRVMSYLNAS
Assay: SPR (Biacore 3000), mAb captured via goat anti-mouse IgG Fc, human IL-12 p70 in solution
pKd: −log10 of the molar value.
Please use Criterion met whenever pKd is not below 10, and Criterion not met whenever it is.

Request: Please check the record 1D8 (antibody, V domains shown) VH: QVQLQQSGAELMKPGASVKISCKATGYTFSSYWIEWVKQRPGHGLEWIGDILPGSGSTNYNEKFKDKATFTADTSFNTAYMQLSSLTSEDSAVYYCATRRFRGLDYWGQGTTLTVSS VL: SIVMTQTPKFLLVSAGDRVTITCKASQSVSNDVAWYQQKSGQSPKLLIYYASNRYTGVPDRFTGSGYGTDFTFTISTVQPEDLAVYFCQQDYTSPFTFGSGTKLEIKR and state if its pKd is at or above 10.
Response: Criterion met

Request: Please check the record 3G7 (antibody, V domains shown) VH: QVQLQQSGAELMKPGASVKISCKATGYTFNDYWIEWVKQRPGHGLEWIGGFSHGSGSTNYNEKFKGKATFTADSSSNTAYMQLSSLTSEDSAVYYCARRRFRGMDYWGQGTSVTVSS VL: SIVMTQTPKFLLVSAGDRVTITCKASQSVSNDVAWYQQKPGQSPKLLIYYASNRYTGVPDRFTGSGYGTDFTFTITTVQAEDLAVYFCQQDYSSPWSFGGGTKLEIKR and state if its pKd is at or above 10.
Response: Criterion met

Request: Please check the record 1A6 (antibody, V domains shown) VH: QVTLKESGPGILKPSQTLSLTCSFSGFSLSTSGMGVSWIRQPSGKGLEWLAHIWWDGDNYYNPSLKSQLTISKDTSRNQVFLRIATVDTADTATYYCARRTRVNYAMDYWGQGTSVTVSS VL: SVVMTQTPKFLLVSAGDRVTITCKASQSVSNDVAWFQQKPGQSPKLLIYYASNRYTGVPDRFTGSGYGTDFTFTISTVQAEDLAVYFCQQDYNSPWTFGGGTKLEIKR and state if its pKd is at or above 10.
Response: Criterion not met

Request: Please check the record 7G3 (antibody, V domains shown) VH: EVQLQQSGAEFVRSGASVKLSCTASGLNIKDYYIHWVKQRPEQVLDWIGWIDPENGYSEYAPRFQDKATMTADTSSNTAYLHLSSLTSEDTAVYYCNPGELARYFDYWGQGTTLTVSS VL: DIVLSQSPATLSVTPGDSVSLSCRASQSISKNLHWYQQKSHESPRLLIKYTSQSISGIPSRFSGSGSGTDFTLSINSVETEDFGMYFCQQSISWPLTFGAGTKLELKR and state if its pKd is at or above 10.
Response: Criterion not met
